Value source: ChEMBL document CHEMBL2157993

Test: Selectivity ratio of IC50 for human MetRS to IC50 for Trypanosoma brucei MetRS
Reported property: Ratio IC50
Please give the numeric answer without any surrounding text.

Could you please provide reported Ratio IC50 for `O=C(NCCCNCc1cc(Cl)cc(Cl)c1)Nc1ccccc1O` ? Thanks!
95

Could you please provide reported Ratio IC50 for `O=C(NCCCNCc1cc(Cl)cc(Cl)c1)Nc1cccs1` ? Thanks!
48

Could you please provide reported Ratio IC50 for `O=C(NCCCNCc1cc(Cl)cc(Cl)c1)Nc1ccsc1` ? Thanks!
155

* * *

Tested on: Trypanosoma brucei
Experiment: Binding affinity to Trypanosoma brucei MetRS at 100 uM by thermal shift assay
Definition: the class of an entry is the range in range A: < 4 °C; range B: ≥ 4 °C and < 7 °C; range C: ≥ 7 °C that contains its ΔTm.

{"columns": ["Entry smiles", "Qualitative label"],
 "data": [
  ["COc1ccc(CNCCCNC(=O)Nc2ccccc2)cc1", "range A"],
  ["O=C(NCCCNCc1cc(Cl)cc(Cl)c1Cl)Nc1ccccc1", "range B"],
  ["O=C(NCCCNCc1cc(Cl)cc(Cl)c1)Nc1cccs1", "range C"],
  ["O=C(NCCCNCc1cc(Cl)cc(Cl)c1)Nc1ccccc1", "range C"]
]}

Form field 'band' for `O=C(NCCCNCc1ccccc1Cl)Nc1ccccc1`
range A

Form field 'band' for `O=C(NCCCNCc1cc(Cl)cc(Cl)c1)Nc1ccncc1`
range A

Form field 'band' for `O=C(NCCCNCc1cc(Cl)cc(Cl)c1)Nc1cccc(O)c1`
range C

Form field 'band' for `COc1ccccc1CNCCCNC(=O)Nc1ccccc1`
range A

* * *

System: Trypanosoma brucei
Test: Binding affinity to Trypanosoma brucei MetRS at 100 uM by thermal shift assay
Mark F for ΔTm values under 4 °C, and T for everything at or above.

{"columns": ["Entry smiles", "Qualitative label"],
 "data": [
  ["O=C(NCCCNCc1ccccc1)Nc1ccccc1", "F"],
  ["O=C(NCCCNCc1cc(Cl)cc(Cl)c1)Nc1ccccc1O", "T"],
  ["COc1cccc(CNCCCNC(=O)Nc2ccccc2)c1", "T"],
  ["Nc1cccc(NC(=O)NCCCNCc2cc(Cl)cc(Cl)c2)c1", "T"]
]}

Could you now consider this next molecule?
Does ΔTm meet or surpass 4 °C for `O=C(NCCCNCc1ccc(Cl)cc1)Nc1ccccc1` ?
F

* * *

Reported Papp values are given for each entry in this list.
Assay: Permeability across MDCK2-MDR1 cells expressing MDR1 at 3 uM in absence of 2 uM P-gp inhibitor Elacridal by mass spectroscopy
Format: ADME, cell-based, Canis lupus familiaris
Settings: dog, mdck-ii
// units = ×10⁻⁶ cm/s; emit number, no label

Some molecules with recorded Papp:
{"columns": ["Entry smiles", "Numeric readout"],
 "data": [
  ["Oc1cc(NCCCNCc2cc(Cl)cc(Cl)c2)nc2ccccc12", 2.9],
  ["COc1cc(Cl)cc(CNCCCNC(=O)Nc2ccsc2)c1", 9.7],
  ["O=C(NCCCNCc1cc(Cl)cc(Cl)c1)Nc1ccsc1", 17.2],
  ["COc1cc(Cl)cc(CNCCCNC(=O)Nc2ccccc2)c1", 7.3],
  ["O=C(NCCCNCc1cc(Cl)cc(Cl)c1)Nc1cccc(O)c1", 2.9]
]}

Could you please provide reported Papp for `O=C(NCCCNCc1cc(Cl)cc(Cl)c1)Nc1ccccc1` ? Thanks!
35.6

* * *

Test: Plasma concentration in Swiss Webster mouse at 5 mg/kg, ip after 60 mins by MS/MS method
Format: ADME, organism-based
Design: dose 5 mg/kg, route intraperitoneal
Reported property: concentration at 1 h (nM)
// units = nM; emit number, no label

Could you please provide reported concentration at 1 h for `O=C(NCCCNCc1cc(Cl)cc(Cl)c1)Nc1ccccc1` ? Thanks!
120

* * *

Target: ATP-dependent translocase ABCB1 (Homo sapiens, UniProt P08183)
Sequence (P08183 whole entry): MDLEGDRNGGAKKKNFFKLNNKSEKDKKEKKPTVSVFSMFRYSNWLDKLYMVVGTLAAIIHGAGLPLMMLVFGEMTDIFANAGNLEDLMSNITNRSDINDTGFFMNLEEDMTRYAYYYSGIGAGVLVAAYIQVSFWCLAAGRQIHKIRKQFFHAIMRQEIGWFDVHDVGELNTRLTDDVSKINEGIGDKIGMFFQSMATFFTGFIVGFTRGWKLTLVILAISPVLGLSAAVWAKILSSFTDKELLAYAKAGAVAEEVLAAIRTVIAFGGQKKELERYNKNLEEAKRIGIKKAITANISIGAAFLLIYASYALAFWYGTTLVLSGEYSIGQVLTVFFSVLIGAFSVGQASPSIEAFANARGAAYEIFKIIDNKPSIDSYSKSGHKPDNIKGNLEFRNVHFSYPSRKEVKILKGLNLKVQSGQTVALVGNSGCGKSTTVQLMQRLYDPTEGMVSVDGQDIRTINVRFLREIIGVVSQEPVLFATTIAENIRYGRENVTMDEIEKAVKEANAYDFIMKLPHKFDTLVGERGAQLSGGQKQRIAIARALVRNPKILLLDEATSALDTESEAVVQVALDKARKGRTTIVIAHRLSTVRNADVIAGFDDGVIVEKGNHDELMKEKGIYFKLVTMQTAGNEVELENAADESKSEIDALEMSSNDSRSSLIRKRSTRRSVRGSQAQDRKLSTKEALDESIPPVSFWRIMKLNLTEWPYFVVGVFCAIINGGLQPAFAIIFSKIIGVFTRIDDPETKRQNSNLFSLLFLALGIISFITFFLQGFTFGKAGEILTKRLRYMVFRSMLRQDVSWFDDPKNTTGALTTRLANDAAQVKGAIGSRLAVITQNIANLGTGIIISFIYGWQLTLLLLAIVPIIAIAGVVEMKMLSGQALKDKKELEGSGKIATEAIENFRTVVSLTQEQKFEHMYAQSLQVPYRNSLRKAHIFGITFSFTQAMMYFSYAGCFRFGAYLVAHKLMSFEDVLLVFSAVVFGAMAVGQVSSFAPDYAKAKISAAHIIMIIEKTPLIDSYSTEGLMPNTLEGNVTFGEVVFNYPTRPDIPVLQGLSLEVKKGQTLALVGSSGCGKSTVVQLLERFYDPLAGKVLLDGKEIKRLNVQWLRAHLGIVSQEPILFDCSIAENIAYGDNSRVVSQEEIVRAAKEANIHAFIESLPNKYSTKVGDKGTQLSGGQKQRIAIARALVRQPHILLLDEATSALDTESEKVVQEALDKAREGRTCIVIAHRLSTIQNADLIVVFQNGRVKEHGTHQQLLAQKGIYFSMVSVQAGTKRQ
Test: Binding affinity to MDR1 expressed in MDCK2 cells assessed as absorptive quotient at 3 uM in absence of 2 uM by mass spectroscopy
Format: ADME, cell-based
Details: dog, mdck-ii
Reported property: AQ
Please give the numeric answer without any surrounding text.

{"columns": ["Entry smiles", "Reported property", "Numeric readout"],
 "data": [
  ["O=C(NCCCNCc1cc(Cl)cc(Cl)c1)Nc1ccccc1", "AQ", 0.21],
  ["Oc1cc(NCCCNCc2cc(Cl)cc(Cl)c2)nc2ccccc12", "AQ", 0.36],
  ["COc1cc(Cl)cc(CNCCCNC(=O)Nc2ccsc2)c1", "AQ", 0.53],
  ["O=C(NCCCNCc1cc(Cl)cc(Cl)c1)Nc1ccsc1", "AQ", 0.42],
  ["COc1cc(Cl)cc(CNCCCNC(=O)Nc2ccccc2)c1", "AQ", 0.49]
]}

# return AQ of `O=C(NCCCNCc1cc(Cl)cc(Cl)c1)Nc1cccc(O)c1` (system: ATP-dependent translocase ABCB1 (Homo sapiens, UniProt P08183))
0.62

* * *

Assay: Drug level in Swiss Webster mouse brain at 5 mg/kg, ip after 60 mins by MS/MS method
Type: ADME, organism-based
Parameters: dose 5 mg/kg, route intraperitoneal
Details: read-out: Drug uptake
Reported property: concentration at 1 h (nM)
// units = nM; emit number, no label

Could you please provide reported concentration at 1 h for `O=C(NCCCNCc1cc(Cl)cc(Cl)c1)Nc1ccccc1` ? Thanks!
1800

* * *

Assay: Tmax in mouse at 50 mg/kg, po administered as single dose measured over 6 hrs by MS/MS method
Type: ADME, organism-based
Design: dose 50 mg/kg, route oral
Settings: in vivo
Reported property: Tmax (min)
// units = min; emit number, no label

Some molecules with recorded Tmax:
{"columns": ["Entry smiles", "Unit of measure", "Tmax"],
 "data": [
  ["O=C(NCCCNCc1cc(Cl)cc(Cl)c1)Nc1ccsc1", "min", 30],
  ["O=C(NCCCNCc1cc(Cl)cc(Cl)c1)Nc1ccccc1", "min", 30]
]}

// next item, Tmax requested
Could you please provide reported Tmax for `COc1cc(Cl)cc(CNCCCNC(=O)Nc2ccsc2)c1` ? Thanks!
30

* * *

Assay: Selectivity ratio of IC50 for human MetRS to IC50 for Trypanosoma brucei MetRS
Reported property: Ratio IC50
Please give the numeric answer without any surrounding text.

{"columns": ["Entry smiles", "Ratio IC50"],
 "data": [
  ["O=C(NCCCNCc1cc(Cl)cc(Cl)c1)Nc1cccc(O)c1", 187],
  ["COc1cc(Cl)cc(CNCCCNC(=O)Nc2ccsc2)c1", 347],
  ["O=C(NCCCNCc1cc(Cl)cc(Cl)c1)Nc1cccc(F)c1", 39]
]}

// next item, Ratio IC50 requested
Could you please provide reported Ratio IC50 for `COc1cc(Cl)cc(CNCCCNC(=O)Nc2ccccc2)c1` ? Thanks!
186

* * *

Test system: Trypanosoma brucei
Experiment: Binding affinity to Trypanosoma brucei MetRS at 100 uM by thermal shift assay
Reported ΔTm values are given for each entry in this list.
// units = °C; emit number, no label

Some compounds with recorded ΔTm:
{"columns": ["Entry smiles", "Reported property", "Unit of measure", "Numeric readout"],
 "data": [
  ["O=C(NCCCNCc1cc(Cl)cc(Cl)c1)Nc1cccnc1", "ΔTm", "°C", 7.1],
  ["COc1cc(Cl)cc(CNCCCNC(=O)Nc2ccsc2)c1", "ΔTm", "°C", 7.9],
  ["COc1cc(Cl)cc(CNCCCNC(=O)Nc2ccccc2)c1", "ΔTm", "°C", 7.7]
]}

Could you please provide reported ΔTm for `O=C(NCCCNCc1cc(Cl)cc(Cl)c1)Nc1ccccc1F` ? Thanks!
7.3

Could you please provide reported ΔTm for `CCOc1ccc(CNCCCNC(=O)Nc2ccccc2)cc1` ? Thanks!
0.5

Could you please provide reported ΔTm for `O=C(NCCCNCc1cc(Cl)cc(Cl)c1)Nc1ccsc1` ? Thanks!
8.3

Could you please provide reported ΔTm for `O=C(NCCCNCc1cc(Cl)cc(Cl)c1)Nc1cccc(F)c1` ? Thanks!
7.7

* * *

Reported ΔTm values are given for each entry in this list.
System: Trypanosoma brucei
Assay: Binding affinity to Trypanosoma brucei MetRS at 100 uM by thermal shift assay
// units = °C; emit number, no label

{"columns": ["Entry smiles", "ΔTm (°C)"],
 "data": [
  ["CCOc1cccc(CNCCCNC(=O)Nc2ccccc2)c1", 2.7],
  ["O=C(NCCCNCc1cc(Cl)cc(Cl)c1)Nc1ccc(F)cc1", 6.3],
  ["O=C(NCCCNCc1cc(Cl)cc(Cl)c1)Nc1ccc(Cl)cc1", 5.7]
]}

Could you please provide reported ΔTm for `CCOc1ccccc1CNCCCNC(=O)Nc1ccccc1` ? Thanks!
1.1

Could you please provide reported ΔTm for `N=C(NCCCNCc1cc(Cl)cc(Cl)c1)Nc1ccccc1` ? Thanks!
4.5

Could you please provide reported ΔTm for `O=C(NCCCNCc1cc(Cl)cc(Cl)c1)Nc1cccc(Cl)c1` ? Thanks!
5.2

Could you please provide reported ΔTm for `O=C(NCCCNCc1cc(Cl)cc(Cl)c1)Nc1ccc(O)cc1` ? Thanks!
5.8

Could you please provide reported ΔTm for `Nc1ccccc1NC(=O)NCCCNCc1cc(Cl)cc(Cl)c1` ? Thanks!
4.7

Could you please provide reported ΔTm for `O=C(NCCCNCc1cc(Cl)cc(Cl)c1)Nc1ccccn1` ? Thanks!
4.5

Could you please provide reported ΔTm for `O=C(NCCCNCc1cccc(Cl)c1)Nc1ccccc1` ? Thanks!
5.5
